Sourced from paper PMC6351562

Target or test system: Faecalibacterium prausnitzii GUS (FpGUS) (Faecalibacterium duncaniae)
Sequence (C7H4D2 1-608): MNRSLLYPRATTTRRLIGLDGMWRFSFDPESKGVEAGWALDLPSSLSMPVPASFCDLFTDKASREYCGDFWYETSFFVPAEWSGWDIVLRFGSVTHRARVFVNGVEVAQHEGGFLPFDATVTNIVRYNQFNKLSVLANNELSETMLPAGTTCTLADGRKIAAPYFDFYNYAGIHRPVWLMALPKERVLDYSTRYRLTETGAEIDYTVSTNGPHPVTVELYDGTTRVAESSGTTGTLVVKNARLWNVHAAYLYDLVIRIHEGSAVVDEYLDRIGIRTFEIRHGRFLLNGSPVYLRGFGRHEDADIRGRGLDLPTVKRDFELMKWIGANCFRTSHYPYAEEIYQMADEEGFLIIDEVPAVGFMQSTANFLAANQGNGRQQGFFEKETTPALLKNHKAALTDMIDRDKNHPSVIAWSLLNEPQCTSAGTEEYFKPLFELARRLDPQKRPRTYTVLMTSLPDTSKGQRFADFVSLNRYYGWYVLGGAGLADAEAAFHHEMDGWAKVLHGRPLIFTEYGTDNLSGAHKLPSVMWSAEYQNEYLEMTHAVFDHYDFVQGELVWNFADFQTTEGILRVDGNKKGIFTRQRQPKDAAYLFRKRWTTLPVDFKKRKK
Test summary: In vitro inhibition assay (pNPG hydrolysis)
Type: biochemical
Settings: Inhibitor 1 (IC50, nM) pH 6.5, pH 6.5; pNPG 900 µM
Metric: IC50

Exercise: What IC50 value was documented for this compound, `CCOc1ccc(NC(=S)N(CCO)Cc2cc3cc(C)cc(C)c3[nH]c2=O)cc1` ?
Solution: > 100000 nM

----------
Target or test system: Ruminococcus gnavus GUS (RgGUS) (Mediterraneibacter gnavus)
Sequence (A0A2N5PVZ8 1-603): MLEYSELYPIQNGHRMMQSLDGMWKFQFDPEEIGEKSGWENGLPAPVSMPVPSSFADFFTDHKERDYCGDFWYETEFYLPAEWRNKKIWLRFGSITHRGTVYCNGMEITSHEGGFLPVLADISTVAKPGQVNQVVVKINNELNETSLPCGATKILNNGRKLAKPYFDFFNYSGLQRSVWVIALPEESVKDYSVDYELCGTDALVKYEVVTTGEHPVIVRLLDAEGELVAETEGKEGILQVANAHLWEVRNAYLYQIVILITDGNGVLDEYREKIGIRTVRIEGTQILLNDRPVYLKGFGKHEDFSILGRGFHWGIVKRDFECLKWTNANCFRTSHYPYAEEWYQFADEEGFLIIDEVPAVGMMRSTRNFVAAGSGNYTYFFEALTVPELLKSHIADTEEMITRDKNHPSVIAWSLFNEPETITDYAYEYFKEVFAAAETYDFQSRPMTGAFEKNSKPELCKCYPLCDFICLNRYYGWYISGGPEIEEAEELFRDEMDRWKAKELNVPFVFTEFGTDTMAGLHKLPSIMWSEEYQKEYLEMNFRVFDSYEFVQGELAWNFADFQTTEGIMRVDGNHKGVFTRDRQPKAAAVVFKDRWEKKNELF
Test summary: In vitro inhibition assay (pNPG hydrolysis)
Type: biochemical
Settings: pH 7.5; pNPG 900 µM; read-out: UNC10201652 (IC50, nM) pH 7.5
Metric: IC50

Exercise: What IC50 value was documented for this compound, `C1CCc2c(c(N3CCOCC3)nc3sc4c(N5CCNCC5)nnnc4c23)C1` ?
Solution: > 100000 nM

----------
Target or test system: E. coli GUS (EcGUS) (Escherichia coli, UniProt P05804)
Sequence (P05804 whole entry): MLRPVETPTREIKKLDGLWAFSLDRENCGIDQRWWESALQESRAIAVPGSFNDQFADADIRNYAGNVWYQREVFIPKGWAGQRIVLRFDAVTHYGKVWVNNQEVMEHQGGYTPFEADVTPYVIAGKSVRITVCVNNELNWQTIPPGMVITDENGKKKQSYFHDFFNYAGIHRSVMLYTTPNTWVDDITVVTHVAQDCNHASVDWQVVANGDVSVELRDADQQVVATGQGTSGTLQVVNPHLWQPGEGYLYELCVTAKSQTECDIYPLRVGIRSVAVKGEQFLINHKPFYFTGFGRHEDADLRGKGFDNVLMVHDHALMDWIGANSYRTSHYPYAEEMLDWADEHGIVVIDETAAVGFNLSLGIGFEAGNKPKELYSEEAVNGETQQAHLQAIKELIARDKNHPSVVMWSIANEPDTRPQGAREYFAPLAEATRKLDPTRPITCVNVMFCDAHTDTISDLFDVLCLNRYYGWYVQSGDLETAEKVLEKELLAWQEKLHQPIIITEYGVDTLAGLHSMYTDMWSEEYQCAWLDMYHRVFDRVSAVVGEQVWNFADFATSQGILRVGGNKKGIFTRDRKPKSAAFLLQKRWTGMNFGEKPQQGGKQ
Test summary: In vitro inhibition assay (pNPG hydrolysis)
Assay type: biochemical
Settings: pH 6.5; pNPG 900 µM; 1 hour end point; read-out: UNC10201652 (IC50, nM) pH 6.5
Metric: IC50

Exercise: What IC50 value was documented for this molecule, C1CCc2c(c(N3CCOCC3)nc3sc4c(N5CCNCC5)nnnc4c23)C1 [UNC10201652] ?
Solution: 310 nM

----------
Target or test system: Eubacterium eligens GUS (EeGUS) (Lachnospira eligens)
Sequence (C4Z6Z2 1-611): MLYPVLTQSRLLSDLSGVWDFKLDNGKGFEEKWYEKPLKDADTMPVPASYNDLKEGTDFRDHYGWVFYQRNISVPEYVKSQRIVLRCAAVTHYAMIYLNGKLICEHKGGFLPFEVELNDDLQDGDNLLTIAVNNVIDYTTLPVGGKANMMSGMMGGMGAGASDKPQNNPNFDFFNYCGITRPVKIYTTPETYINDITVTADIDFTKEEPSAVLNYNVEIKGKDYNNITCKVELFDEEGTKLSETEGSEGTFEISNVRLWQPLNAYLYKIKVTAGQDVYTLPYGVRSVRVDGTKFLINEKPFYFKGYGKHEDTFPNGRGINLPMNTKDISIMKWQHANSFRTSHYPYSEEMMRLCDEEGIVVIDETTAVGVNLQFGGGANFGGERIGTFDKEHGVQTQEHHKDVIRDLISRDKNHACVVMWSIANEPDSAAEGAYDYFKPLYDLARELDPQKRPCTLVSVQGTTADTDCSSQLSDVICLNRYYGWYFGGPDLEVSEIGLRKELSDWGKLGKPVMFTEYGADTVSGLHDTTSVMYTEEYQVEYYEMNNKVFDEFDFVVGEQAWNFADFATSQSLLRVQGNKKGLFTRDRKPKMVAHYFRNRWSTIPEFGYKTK
Test summary: In vitro inhibition assay (pNPG hydrolysis)
Format: biochemical
Settings: Inhibitor 1 (IC50, nM) pH 7.5, pH 7.5; pNPG 900 µM
Metric: IC50

Exercise: What IC50 value was documented for this compound, CCOc1ccc(NC(=S)N(CCO)Cc2cc3cc(C)cc(C)c3[nH]c2=O)cc1 [Inhibitor 1] ?
Solution: > 100000 nM

----------
Target or test system: UniProtKB A0A078SUX9
Sequence (A0A078SUX9 32-886): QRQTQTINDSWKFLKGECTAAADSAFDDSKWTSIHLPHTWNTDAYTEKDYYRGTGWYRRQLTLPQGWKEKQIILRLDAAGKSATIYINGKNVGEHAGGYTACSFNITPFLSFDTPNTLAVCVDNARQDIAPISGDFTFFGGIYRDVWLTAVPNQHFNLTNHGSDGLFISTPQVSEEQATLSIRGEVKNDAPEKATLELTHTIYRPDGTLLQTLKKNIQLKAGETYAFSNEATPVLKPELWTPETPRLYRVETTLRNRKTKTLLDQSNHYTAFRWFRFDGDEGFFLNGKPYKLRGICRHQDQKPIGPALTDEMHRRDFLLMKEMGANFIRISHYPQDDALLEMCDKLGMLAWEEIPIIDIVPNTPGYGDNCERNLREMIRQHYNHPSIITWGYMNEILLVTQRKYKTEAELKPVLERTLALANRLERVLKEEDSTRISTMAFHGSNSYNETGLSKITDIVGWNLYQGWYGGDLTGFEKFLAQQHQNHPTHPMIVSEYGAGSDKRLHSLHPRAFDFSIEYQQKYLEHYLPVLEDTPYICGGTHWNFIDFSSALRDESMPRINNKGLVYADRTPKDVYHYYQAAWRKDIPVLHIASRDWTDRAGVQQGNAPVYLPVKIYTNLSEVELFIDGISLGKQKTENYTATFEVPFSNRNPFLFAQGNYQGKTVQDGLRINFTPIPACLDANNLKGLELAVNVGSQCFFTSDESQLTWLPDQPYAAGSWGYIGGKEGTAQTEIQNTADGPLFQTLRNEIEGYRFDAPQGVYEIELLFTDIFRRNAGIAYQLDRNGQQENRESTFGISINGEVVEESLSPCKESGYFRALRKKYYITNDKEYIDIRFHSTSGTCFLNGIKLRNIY
Test summary: In vitro inhibition assay (pNPG hydrolysis)
Assay type: biochemical
Settings: pH 7.5; pNPG 900 µM; read-out: UNC10201652 (IC50, nM) pH 7.5
Metric: IC50

Exercise: Test system UniProtKB A0A078SUX9; read-out IC50; what value for `C1CCc2c(c(N3CCOCC3)nc3sc4c(N5CCNCC5)nnnc4c23)C1` ?
Solution: > 100000 nM
